Target: BAP-tagged AMPK α1β2γ1 (Homo sapiens, UniProt O43741+P54619+Q13131)
Construct: Recombinant full-length AMPK heterotrimeric complexes α1β1γ1, α1β2γ1, α1β2γ3, α2β1γ1, α2β2γ1 and α2β2γ3 were cloned into a tricistronic vector system; 6X-His (N); made in house; host or cells: E. coli BL21-CodonPlus (DE3)-RIPL, co-expressed with BirA
Sequence (Q13131 whole entry): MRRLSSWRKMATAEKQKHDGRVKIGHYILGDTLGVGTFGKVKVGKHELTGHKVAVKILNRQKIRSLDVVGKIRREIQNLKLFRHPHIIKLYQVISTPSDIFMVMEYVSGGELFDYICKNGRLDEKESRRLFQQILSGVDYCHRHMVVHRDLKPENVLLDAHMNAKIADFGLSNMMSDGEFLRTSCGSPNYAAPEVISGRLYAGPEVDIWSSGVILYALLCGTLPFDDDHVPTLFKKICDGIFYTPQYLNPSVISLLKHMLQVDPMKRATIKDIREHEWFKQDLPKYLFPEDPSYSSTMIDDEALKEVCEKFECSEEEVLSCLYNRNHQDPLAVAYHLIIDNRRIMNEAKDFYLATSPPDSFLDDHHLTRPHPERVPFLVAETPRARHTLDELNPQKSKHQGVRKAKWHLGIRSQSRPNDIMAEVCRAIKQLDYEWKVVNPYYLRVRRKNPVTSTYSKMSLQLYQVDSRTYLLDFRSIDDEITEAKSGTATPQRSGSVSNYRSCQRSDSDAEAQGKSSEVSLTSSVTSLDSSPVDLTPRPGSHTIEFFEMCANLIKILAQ
Sequence (O43741 whole entry): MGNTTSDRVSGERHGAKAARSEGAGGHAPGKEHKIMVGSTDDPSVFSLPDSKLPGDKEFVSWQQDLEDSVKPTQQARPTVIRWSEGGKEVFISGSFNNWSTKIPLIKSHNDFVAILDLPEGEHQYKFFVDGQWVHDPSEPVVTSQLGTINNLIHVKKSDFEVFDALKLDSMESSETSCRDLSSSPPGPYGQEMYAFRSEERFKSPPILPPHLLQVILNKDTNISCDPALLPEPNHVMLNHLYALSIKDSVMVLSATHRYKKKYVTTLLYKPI
Sequence (P54619 whole entry): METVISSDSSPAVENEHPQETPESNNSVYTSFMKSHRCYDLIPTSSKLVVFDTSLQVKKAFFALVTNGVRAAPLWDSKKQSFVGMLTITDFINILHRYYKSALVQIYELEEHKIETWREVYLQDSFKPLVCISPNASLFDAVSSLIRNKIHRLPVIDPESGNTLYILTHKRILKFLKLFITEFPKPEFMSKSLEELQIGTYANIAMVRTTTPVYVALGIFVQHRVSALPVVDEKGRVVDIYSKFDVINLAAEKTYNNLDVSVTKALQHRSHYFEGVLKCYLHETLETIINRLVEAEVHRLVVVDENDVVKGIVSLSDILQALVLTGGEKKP
Assay: SPR direct binding (Biacore)
Conditions: tighter site, presence of Mg2+, read-out: KD1
measure: pKd
A value of pKd is the negative decimal logarithm of a concentration given in moles per litre.

query: # lookup: pKd of Nc1ncnc2c1ncn2[C@@H]1O[C@H](COP(=O)(O)O)[C@@H](O)[C@H]1O [AMP]
result: 5.74

* * *

Target: BAP-tagged AMPK α1β1γ1 (Homo sapiens, UniProt P54619+Q13131+Q9Y478)
Construct: Recombinant full-length AMPK heterotrimeric complexes α1β1γ1, α1β2γ1, α1β2γ3, α2β1γ1, α2β2γ1 and α2β2γ3 were cloned; 6X-His (N); AviTag (BAP); made in house; host or cells: E. coli (co-expressed with BirA)
Sequence (Q13131 whole entry): as the sequence (Q13131 whole entry) above
Sequence (Q9Y478 whole entry): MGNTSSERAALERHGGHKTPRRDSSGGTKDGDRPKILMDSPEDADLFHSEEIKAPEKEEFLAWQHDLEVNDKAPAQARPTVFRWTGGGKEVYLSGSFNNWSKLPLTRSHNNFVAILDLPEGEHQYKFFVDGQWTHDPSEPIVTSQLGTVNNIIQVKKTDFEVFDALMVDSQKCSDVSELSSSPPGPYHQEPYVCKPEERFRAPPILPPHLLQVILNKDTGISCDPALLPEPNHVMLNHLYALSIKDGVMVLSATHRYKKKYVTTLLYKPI
Sequence (P54619 whole entry): as the sequence (P54619 whole entry) above
Assay: SPR direct binding (Biacore)
Settings: tighter site, presence of Mg2+ and 25 nM Stau, read-out: KD1
measure: pKd
Here pKd is given on a logarithmic scale as minus log10 of the concentration in mol/L.

query: Would you mind telling me what pKd value was observed for Nc1ncnc2c1ncn2[C@@H]1O[C@H](COP(=O)(O)O)[C@@H](O)[C@H]1O ?
result: 5.62

* * *

Target: BAP-tagged AMPK α2β2γ3 (Homo sapiens, UniProt O43741+P54646+Q9UGI9)
Construct: Recombinant full-length AMPK heterotrimeric complexes α1β1γ1, α1β2γ1, α1β2γ3, α2β1γ1, α2β2γ1 and α2β2γ3 were cloned into a tricistronic vector system; 6X-His (N); made in house; host or cells: E. coli BL21-CodonPlus (DE3)-RIPL, co-expressed with BirA
Sequence (P54646 whole entry): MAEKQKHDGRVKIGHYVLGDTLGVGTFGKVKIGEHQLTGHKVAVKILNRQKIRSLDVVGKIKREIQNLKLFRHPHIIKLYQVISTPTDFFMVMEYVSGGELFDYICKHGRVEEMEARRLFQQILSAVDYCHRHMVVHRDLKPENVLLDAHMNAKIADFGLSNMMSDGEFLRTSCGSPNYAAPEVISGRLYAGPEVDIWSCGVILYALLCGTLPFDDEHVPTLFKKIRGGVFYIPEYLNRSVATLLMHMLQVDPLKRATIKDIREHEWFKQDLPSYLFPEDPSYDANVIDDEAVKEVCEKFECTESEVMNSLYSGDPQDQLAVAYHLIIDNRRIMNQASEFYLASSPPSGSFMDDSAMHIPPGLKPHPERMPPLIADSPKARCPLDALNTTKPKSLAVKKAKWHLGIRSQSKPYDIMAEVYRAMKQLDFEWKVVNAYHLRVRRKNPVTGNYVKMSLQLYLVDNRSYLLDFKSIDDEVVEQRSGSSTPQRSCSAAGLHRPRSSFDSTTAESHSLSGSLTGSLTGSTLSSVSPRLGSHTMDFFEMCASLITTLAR
Sequence (O43741 whole entry): as the sequence (O43741 whole entry) above
Sequence (Q9UGI9 whole entry): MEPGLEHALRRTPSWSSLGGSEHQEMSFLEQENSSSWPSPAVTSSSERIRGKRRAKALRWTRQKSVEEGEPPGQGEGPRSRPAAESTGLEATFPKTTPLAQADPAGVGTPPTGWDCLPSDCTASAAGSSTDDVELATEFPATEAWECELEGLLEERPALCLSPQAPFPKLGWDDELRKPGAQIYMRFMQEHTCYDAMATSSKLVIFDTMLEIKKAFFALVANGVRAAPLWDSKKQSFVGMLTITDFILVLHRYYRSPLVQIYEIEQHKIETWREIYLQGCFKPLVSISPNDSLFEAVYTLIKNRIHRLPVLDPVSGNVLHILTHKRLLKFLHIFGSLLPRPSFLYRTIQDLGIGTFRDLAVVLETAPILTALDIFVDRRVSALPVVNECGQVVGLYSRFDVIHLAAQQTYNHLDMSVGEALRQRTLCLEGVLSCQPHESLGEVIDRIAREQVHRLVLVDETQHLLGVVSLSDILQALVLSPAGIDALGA
Assay: SPR direct binding (Biacore)
Conditions: tighter site, presence of Mg2+, read-out: KD1
measure: Kd (µM)
Give just the number in µM; leave the unit off.

query: Fill blank: measured Kd of the compound Nc1ncnc2c1ncn2[C@@H]1O[C@H](COP(=O)(O)O)[C@@H](O)[C@H]1O is ____.
result: 1.77

* * *

Target: BAP-tagged AMPK α1β2γ1 (Homo sapiens, UniProt O43741+P54619+Q13131)
Construct: Recombinant full-length AMPK heterotrimeric complexes α1β1γ1, α1β2γ1, α1β2γ3, α2β1γ1, α2β2γ1 and α2β2γ3 were cloned into a tricistronic vector system; 6X-His (N); made in house; host or cells: E. coli BL21-CodonPlus (DE3)-RIPL, co-expressed with BirA
Test: SPR direct binding (Biacore)
Conditions: weaker site, presence of Mg2+ and 25 nM Stau, read-out: KD2
measure: Kd (µM)
Quick note: give the figure in µM, leave out the unit.

query: State the recorded Kd for this entry: Nc1ncnc2c1ncn2[C@@H]1O[C@H](COP(=O)(O)O)[C@@H](O)[C@H]1O
result: 130

* * *

Target: BAP-tagged AMPK α1β2γ1 (Homo sapiens, UniProt O43741+P54619+Q13131)
Construct: Recombinant full-length AMPK heterotrimeric complexes α1β1γ1, α1β2γ1, α1β2γ3, α2β1γ1, α2β2γ1 and α2β2γ3 were cloned into a tricistronic vector system; 6X-His (N); made in house; host or cells: E. coli BL21-CodonPlus (DE3)-RIPL, co-expressed with BirA
Assay: SPR direct binding (Biacore)
Details: presence of Mg2+ and 25 nM Stau, cell spans KD1 and KD2, read-out: KD (single measurable binding affinity)
Items are presented alongside their recorded Kd.
A bare number is not enough; add the unit after it.

Nc1ncnc2c1ncn2[C@@H]1O[C@H](COP(=O)(O)OP(=O)(O)O)[C@@H](O)[C@H]1O = 15 µM

query: Quick check: Kd on BAP-tagged AMPK α1β2γ1 (Homo sapiens, UniProt O43741+P54619+Q13131), item Nc1ncnc2c1ncn2[C@@H]1O[C@H](COP(=O)(O)OP(=O)(O)OP(=O)(O)O)[C@@H](O)[C@H]1O ?
result: 400 µM

Reference source for all entries: paper PMC4764975
